- experiment notes: Selectivity for Glucose to Fructose was determined by Fluorescence experiment
Decision: Selectivity compared against 8; not below it gives met, below it gives not met.

[
  {
    "chemical smiles": "O=C1c2cccc3cc([N+](=O)[O-])cc(c23)C(=O)N1c1cccc(B(O)O)c1",
    "group label": "not met"
  },
  {
    "chemical smiles": "CN(Cc1ccccc1B(O)O)Cc1c2ccccc2c(CN(C)C(=O)c2ccccc2C(=O)N(C)Cc2c3ccccc3c(CN(C)Cc3ccccc3B(O)O)c3ccccc23)c2ccccc12",
    "group label": "not met"
  },
  {
    "chemical smiles": "OB(O)c1ccccc1",
    "group label": "not met"
  },
  {
    "chemical smiles": "CN(Cc1ccccc1B(O)O)Cc1c2ccccc2c(CN(C)Cc2ccccc2B(O)O)c2ccccc12",
    "group label": "met"
  },
  {
    "chemical smiles": "CN(Cc1ccccc1B(O)O)Cc1c2ccccc2c(CN(C)C(=O)Cc2ccccc2CC(=O)N(C)Cc2c3ccccc3c(CN(C)Cc3ccccc3B(O)O)c3ccccc23)c2ccccc12",
    "group label": "met"
  }
]

----------
Recorded Ka, one value per entry.
- experiment notes: Binding constant for complexation with Galactose by Fluorescence experiment

[
  {
    "chemical smiles": "CN(Cc1ccccc1B(O)O)Cc1c2ccccc2c(CN(C)Cc2ccccc2B(O)O)c2ccccc12",
    "Ka [M⁻¹]": 158
  },
  {
    "chemical smiles": "CN(Cc1ccccc1B(O)O)Cc1c2ccccc2c(CN(C)C(=O)CCCCC(=O)N(C)Cc2c3ccccc3c(CN(C)Cc3ccccc3B(O)O)c3ccccc23)c2ccccc12",
    "Ka [M⁻¹]": 105
  },
  {
    "chemical smiles": "CN(Cc1ccccc1B(O)O)Cc1c2ccccc2c(CN(C)C(=O)Cc2ccccc2CC(=O)N(C)Cc2c3ccccc3c(CN(C)Cc3ccccc3B(O)O)c3ccccc23)c2ccccc12",
    "Ka [M⁻¹]": 30
  },
  {
    "chemical smiles": "CN(Cc1ccccc1B(O)O)Cc1c2ccccc2c(CN(C)C(=O)c2ccccc2C(=O)N(C)Cc2c3ccccc3c(CN(C)Cc3ccccc3B(O)O)c3ccccc23)c2ccccc12",
    "Ka [M⁻¹]": 33
  },
  {
    "chemical smiles": "CC1=C2C[C@H]3Cc4c(CO)oc(-c5ccc(B(O)O)cc5)c4C3=C2Oc2cc(B(O)O)ccc21",
    "Ka [M⁻¹]": 100
  },
  {
    "chemical smiles": "OB(O)c1ccccc1",
    "Ka [M⁻¹]": 15
  }
]

----------
- experiment notes: Binding constant for complexation with Fructose by Fluorescence experiment
Decision: Ka compared against 300 M⁻¹; not below it gives Fulfilled, below it gives Not fulfilled.

[
  {
    "chemical smiles": "CN(Cc1ccccc1B(O)O)Cc1c2ccccc2c(CN(C)Cc2ccccc2B(O)O)c2ccccc12",
    "group label": "Fulfilled"
  },
  {
    "chemical smiles": "CN(Cc1ccccc1B(O)O)Cc1c2ccccc2c(CN(C)C(=O)c2ccccc2C(=O)N(C)Cc2c3ccccc3c(CN(C)Cc3ccccc3B(O)O)c3ccccc23)c2ccccc12",
    "group label": "Not fulfilled"
  },
  {
    "chemical smiles": "O=C1c2cccc3cc([N+](=O)[O-])cc(c23)C(=O)N1c1cccc(B(O)O)c1",
    "group label": "Fulfilled"
  },
  {
    "chemical smiles": "CN(Cc1ccccc1B(O)O)Cc1c2ccccc2c(CN(C)C(=O)CCCCC(=O)N(C)Cc2c3ccccc3c(CN(C)Cc3ccccc3B(O)O)c3ccccc23)c2ccccc12",
    "group label": "Not fulfilled"
  },
  {
    "chemical smiles": "CN(Cc1ccccc1B(O)O)Cc1c2ccccc2c(CN(C)C(=O)Cc2ccccc2CC(=O)N(C)Cc2c3ccccc3c(CN(C)Cc3ccccc3B(O)O)c3ccccc23)c2ccccc12",
    "group label": "Not fulfilled"
  },
  {
    "chemical smiles": "OB(O)c1ccccc1",
    "group label": "Not fulfilled"
  }
]
